// provenance: ChEMBL document CHEMBL1130344

Sequence of the target: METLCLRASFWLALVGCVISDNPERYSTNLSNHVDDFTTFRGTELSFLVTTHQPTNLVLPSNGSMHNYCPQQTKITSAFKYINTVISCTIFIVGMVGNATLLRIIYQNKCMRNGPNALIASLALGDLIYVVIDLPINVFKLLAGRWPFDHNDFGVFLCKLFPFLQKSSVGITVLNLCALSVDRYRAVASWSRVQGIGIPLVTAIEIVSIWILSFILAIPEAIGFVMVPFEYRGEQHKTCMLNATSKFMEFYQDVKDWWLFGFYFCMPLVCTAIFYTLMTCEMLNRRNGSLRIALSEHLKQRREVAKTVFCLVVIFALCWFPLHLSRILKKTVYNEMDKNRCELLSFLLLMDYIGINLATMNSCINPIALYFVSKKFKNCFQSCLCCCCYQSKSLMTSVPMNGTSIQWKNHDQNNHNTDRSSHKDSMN
Endpoint Label: Ki

molecule="Cc1cc2c(cc1CC(=O)c1sccc1S(=O)(=O)Nc1onc(C)c1Cl)OCO2 [SITAXENTAN]" endpoint_label=Ki result="0.43 nM"
